target: FGFR3 (UniProt P22607); experiment: phosphorylation enrichment, bacterial display (enrichment ratio); higher = better substrate or ligand; peptides without Tyr show the background;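 also: 11-residue human phosphosite peptides and single-mutation variants displayed on the E. coli surface, counted by deep sequencing, each peptide's frequency after selection divided by its frequency in the unselected input library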;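 also: frequency after pTyr selection over input frequency; kinase dosed for 20-30% of maximal phosphorylation in three min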
Sequence (P22607 whole entry, looked up): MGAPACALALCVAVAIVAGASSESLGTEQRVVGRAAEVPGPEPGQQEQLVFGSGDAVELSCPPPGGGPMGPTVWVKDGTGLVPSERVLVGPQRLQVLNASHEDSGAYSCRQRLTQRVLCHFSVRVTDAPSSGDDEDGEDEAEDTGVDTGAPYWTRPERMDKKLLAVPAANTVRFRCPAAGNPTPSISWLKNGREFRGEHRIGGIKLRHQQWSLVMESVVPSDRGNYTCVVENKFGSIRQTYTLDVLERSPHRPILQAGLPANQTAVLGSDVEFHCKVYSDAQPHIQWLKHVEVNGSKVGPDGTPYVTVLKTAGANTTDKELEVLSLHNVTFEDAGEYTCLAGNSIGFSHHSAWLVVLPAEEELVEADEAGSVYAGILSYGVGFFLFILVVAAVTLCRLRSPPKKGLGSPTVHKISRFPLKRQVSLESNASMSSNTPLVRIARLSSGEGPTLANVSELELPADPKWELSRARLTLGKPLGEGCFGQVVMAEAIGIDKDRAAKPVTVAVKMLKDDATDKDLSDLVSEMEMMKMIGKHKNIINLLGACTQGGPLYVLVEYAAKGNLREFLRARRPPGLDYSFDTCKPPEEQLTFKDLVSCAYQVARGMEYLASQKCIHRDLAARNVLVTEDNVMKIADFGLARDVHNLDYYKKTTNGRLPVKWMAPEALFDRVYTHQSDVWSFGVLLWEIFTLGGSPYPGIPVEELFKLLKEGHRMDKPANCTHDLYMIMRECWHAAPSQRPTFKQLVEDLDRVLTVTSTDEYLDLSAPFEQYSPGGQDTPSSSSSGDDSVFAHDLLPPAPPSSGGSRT
For each entry below, report its phosphorylation enrichment value.
Numbers only.

So the reported phosphorylation enrichment for LESTLYESSVV [TRPV4_Y91] , on FGFR3 (UniProt P22607), turned out to be 1.47

Okay, here is my list. What is phosphorylation enrichment for each of these?
1. SVEVPYEPPEV [TP53_Y220_V217E]
2. RARIRYAQEHD [NSD1_Y1987]
3. GINDDHGQLKN [NBN_Y679_Y679H]
4. EEGRVYVYRLS [ITGAE_Y549]
5. ASYGPYTRVQS [FOXL2_Y258]

1: 0.907; 2: 0.625; 3: 0.591; 4: 0.76; 5: 0.427

I'm hoping you can list phosphorylation enrichment for every sequence here, please.
1. EKMWSYTKSAE [GRIA3_Y705_M706T]
2. GRRGQYVMPSE [TTC7A_Y396_L399P]
3. KKYPDYIQIAM [SGMS2_Y59]
4. NVGGKYSYLKV [GRM3_Y478]
5. DVELLYPVKEK [EPHX1_Y283]
6. PRARTYCFKQE [KLHDC9_Y175_S171R_YF]
7. IKGIRYLHHRG [GUCY2D_Y656]

[0.529, 0.394, 5.93, 0.476, 0.558, 0.517, 0.363]

I would be grateful if you could provide phosphorylation enrichment for each of the following entries.
1. WQLEIYRASRP [ERCC4_Y594_R589W]
2. ILLAGCLVMVI [SLC28A3_Y113_Y113C]
3. FRGFSYDDIPD [TMEM230_Y112_YF]
4. DHCNQYEQQKM [CHD7_Y75_Y72C]

1. 0.702
2. 0.829
3. 0.737
4. 0.682

Look up phosphorylation enrichment for the entries below, preserving their order.
1. ENFDDYMKDVG [FABP4_Y20_E23D]
2. HGEAVYSRDCV [XPC_Y676_R671H]
3. LRNRVYEVPVE [SLC26A3_Y756]
4. CTTIHYTYMCN [TP53_Y234_N235T]

0.764
0.687
0.757
0.704

Hi, could you look up phosphorylation enrichment for each item in my list?
1. LNCDRYSVGLL [PDE6A_Y275]
2. SRASFYRKGGC [ALK_Y1283_Y1278S_YF]
3. LFDPDYMKVIL [CYP4A22_Y104_YF]

1.2
0.496
1.44

Provide each entry's phosphorylation enrichment from the list below.
1. MKGDYYRSLAE [YWHAG_Y131_Y133S]
2. GMKIVYVFVKK [DNAI2_Y5_E2K_YF]
3. GEVLVYAEDPA [FLNA_Y319_V320A]

1. 0.742
2. 0.706
3. 0.704

Please give phosphorylation enrichment for each item listed below.
1. LGQRIYQFIRS [DYRK1B_Y271_Q275R_YF]
2. FLAVEYHKPHI [IDS_Y225_G224E]

[1.21, 0.515]

Give phosphorylation enrichment for each listed item.
1. GGPTFYIDTNA [ACTL6A_Y69_YF]
2. PINEPYGDDLD [JUP_Y693_M697L]
3. RFLERDIFNRE [HLA-DPB1_Y57_Y57D_YF]
4. YQSKHYACIRQ [TIMP3_Y182]

1. 0.868
2. 0.988
3. 1.1
4. 0.45

Origin of the recorded values: the supplement of paper PMC10065799
